# credit: ChEMBL document CHEMBL1961873

Assignment: determine reported inhibition for the given molecules.
Target: Aurora kinase A (Homo sapiens);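 note: each reported value is a mean percent inhibition of Aurora-A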
Conditions: at 0.1 µM
Provide the reading as a plain figure in %.

Endpoint output: inhibition of "COc1cccc(-n2cnc3c(N/N=C/c4ccncc4)ncnc32)c1" . Value?
-0.8

Same question for "C#Cc1cccc(Nc2ncnc3ccc(OCCCCNCCS(C)(=O)=O)cc23)c1" please.
-1.65

Same question for COc1ccc2cc(-c3c(-c4ccncc4)nc(-c4ccc([S+](C)[O-])cc4C)n3C)ccc2c1 (centres undefined) please.
-0.61

Same question for "CN(C)CCOc1ccc(-c2cc(-c3ccc4c(c3)CCC4=NO)c(-c3ccncc3)o2)cc1" please.
0.13

Same question for "CCc1nccc2c1nc(-c1nonc1N)n2CC" please.
2.35

Same question for Nc1nccc(-c2c(-c3ccc(F)cc3)ncn2C2CCC(O)CC2)n1 (centres undefined) please.
-2.33

Same question for "c1ccc(-c2n[nH]cc2-c2ccnc(-c3ccc(OCCN4CCOCC4)cc3)c2)nc1" please.
0.43

Same question for "O=C(NCC1CC1)c1ccc(-c2cccc(C(=O)NC3CC3)c2)cc1" please.
1.42

Same question for "COc1cc(Nc2ncc3c(C)nc(-c4cccc(Oc5ccccc5)c4)n3n2)cc(OC)c1OC" please.
2.19

Same question for "COc1ccc(C2=C(N3CCc4ccccc43)C(=O)NC2=O)cc1" please.
1.27

Same question for "Cc1ccc(NC(=O)c2ccoc2)cc1-c1ccc(C(=O)NCC2CC2)cc1" please.
2.28

Same question for "O=C1Nc2ccccc2/C1=C/Nc1ccc(-n2cncn2)cc1" please.
4.13

Same question for "Cc1ccc(C(=O)NC2CCC2)cc1-c1ccc(C(=O)NCC2CC2)cc1" please.
2.11

Same question for "O=C1NC(=O)C(c2cccc(Cl)c2)=C1Nc1ccc(Cl)c(C(=O)O)c1" please.
2.92

Same question for "COc1cc2ncn(-c3cc(OCc4cccs4)c(C(N)=O)s3)c2cc1OC" please.
-6.64

Same question for "O=C(Nc1n[nH]c2cc(-c3cc(F)ccc3F)ccc12)C1CC1" please.
2.63

Same question for "COc1cccc(/C=N/Nc2ncnc3c2cnn3-c2cccc(OC)c2)c1" please.
2.87

Same question for "NCc1ccc(-n2c(-c3nonc3N)nc3cnccc32)cc1" please.
3.62

Same question for "c1ccc(Oc2ccc(Nc3ncc(-c4ccccc4)o3)cc2)cc1" please.
1.36
